Molecular target: TLR7 (Homo sapiens (Human), UniProt Q9NYK1)
Sequence (Q9NYK1 27-1049): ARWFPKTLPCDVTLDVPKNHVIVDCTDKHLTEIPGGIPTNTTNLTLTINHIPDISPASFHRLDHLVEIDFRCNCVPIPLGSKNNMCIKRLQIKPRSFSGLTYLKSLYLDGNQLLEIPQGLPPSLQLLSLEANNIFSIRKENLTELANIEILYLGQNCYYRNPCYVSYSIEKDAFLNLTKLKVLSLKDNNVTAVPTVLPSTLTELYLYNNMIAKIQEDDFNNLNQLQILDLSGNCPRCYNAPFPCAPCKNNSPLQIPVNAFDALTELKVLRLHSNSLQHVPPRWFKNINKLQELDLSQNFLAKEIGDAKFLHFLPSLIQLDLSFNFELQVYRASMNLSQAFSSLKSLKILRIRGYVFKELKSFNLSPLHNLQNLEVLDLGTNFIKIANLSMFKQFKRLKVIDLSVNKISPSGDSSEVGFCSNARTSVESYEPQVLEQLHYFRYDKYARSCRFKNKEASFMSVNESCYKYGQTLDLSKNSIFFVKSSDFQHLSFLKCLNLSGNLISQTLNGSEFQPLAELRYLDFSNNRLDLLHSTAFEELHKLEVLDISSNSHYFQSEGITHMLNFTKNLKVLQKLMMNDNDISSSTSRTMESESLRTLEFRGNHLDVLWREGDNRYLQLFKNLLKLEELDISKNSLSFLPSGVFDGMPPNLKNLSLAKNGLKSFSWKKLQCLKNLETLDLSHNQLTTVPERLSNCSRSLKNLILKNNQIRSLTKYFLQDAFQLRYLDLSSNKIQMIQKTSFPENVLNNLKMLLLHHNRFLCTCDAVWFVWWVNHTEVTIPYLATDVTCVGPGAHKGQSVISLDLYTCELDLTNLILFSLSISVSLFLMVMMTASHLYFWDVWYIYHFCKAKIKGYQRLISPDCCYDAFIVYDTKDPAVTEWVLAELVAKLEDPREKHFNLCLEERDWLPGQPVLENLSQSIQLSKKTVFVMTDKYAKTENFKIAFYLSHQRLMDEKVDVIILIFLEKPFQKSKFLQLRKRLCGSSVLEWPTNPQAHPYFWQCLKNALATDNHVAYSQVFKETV
Test: TLR7 human peripheral blood mononuclear cell (PBMC) cell-based assay (GS-986 as agonist; IL-6 and IFNα readout)
Conditions: human PBMCs, TLR7 agonist GS-986 at 400 nM, 6 hours, antagonist potency; read-out: TLR-7 EC50
Readout Type: EC50 (nM)

The cases that follow already have their EC50 on record.
> print(dat)
                                   molecule                                    system  assay.value
1  Cc1c(C2CCC3(CNC3)C2)sc2[nH]c(-c3cc(C)c4ncnn4c3)c(C(C)C)c12 (stereo not shown)  TLR7 (Homo sapiens (Human), UniProt Q9NYK1)         0.19
2  Cc1c(C2CCN(C(=O)[C@@H]3CNCCO3)CC2)sc2[nH]c(-c3cc(C)c4ncnn4c3)c(C(C)C)c12  TLR7 (Homo sapiens (Human), UniProt Q9NYK1)         0.24
3  Cc1c(C2CCC3(CC2)CN(CC(N)=O)C3)sc2[nH]c(-c3cc(C)c4ncnn4c3)c(C(C)C)c12  TLR7 (Homo sapiens (Human), UniProt Q9NYK1)         0.11
4  Cc1cc(-c2[nH]c3sc(C4CCN(CC(N)=O)CC4)cc3c2C(C)C)cn2ncnc12  TLR7 (Homo sapiens (Human), UniProt Q9NYK1)         0.68
5  Cc1c(-c2[nH]c3sc(C4CCN(C(=O)[C@H]5CO[C@@H](C)CN5)CC4)c(C)c3c2C(C)C)cn2ncnc2c1C  TLR7 (Homo sapiens (Human), UniProt Q9NYK1)         1.96

[1] Cc1cc(-c2[nH]c3sc([C@H]4C[C@@]5(CCCN(CC(N)=O)C5)C4)c(C)c3c2C(C)C)cn2ncnc12
[2] Cc1c(-c2[nH]c3sc([C@H]4C[C@H](c5nnc([C@@H]6COCCN6)o5)C4)c(C)c3c2C(C)C)cn2ncnc2c1C (single isomer, unassigned)
**Q:** Which value of EC50 is smaller, the one for 1 or the one for 2 ? Reply briefly: the label of your chosen item.
**A:** 1

----------
Biological target: TLR7 (Homo sapiens (Human))
Test: TLR7 human peripheral blood mononuclear cell (PBMC) cell-based assay (GS-986 as agonist; IL-6 and IFNα readout)
Conditions: human PBMCs, TLR7 agonist GS-986 at 400 nM, 6 hours, antagonist potency; read-out: TLR-7 EC50
pEC50: −log10 of the molar value.
Readout Type: pEC50

> print(dat)
                                   molecule  readout.type  assay.value
1  Cc1cc(-c2[nH]c3sc([C@H]4C[C@]5(CCN(CC(N)=O)C5)C4)c(C)c3c2C(C)C)cn2ncnc12 [Example 132]         pEC50        10.00
2  Cc1c(-c2[nH]c3sc([C@@H]4C[C@@H]5C[C@H]4CN5Cc4ccc(=O)[nH]c4)c(C)c3c2C(C)C)cn2ncnc2c1C [Example 178]         pEC50        10.22
3  CCc1c(C2CCN(C(=O)[C@@H]3COCCN3)CC2)sc2[nH]c(-c3cc(C)c4ncnn4c3)c(C(C)C)c12 [Example 207]         pEC50         9.72
4  Cc1c(-c2[nH]c3sc([C@@H]4C[C@@H]5C[C@H]4CN5C4(CC#N)CN(S(C)(=O)=O)C4)c(C)c3c2C(C)C)cn2ncnc2c1C [Example 153]         pEC50         9.11

[A] Cc1cc(-c2[nH]c3sc(C(=O)N(C)[C@H]4CCNC4)cc3c2C(C)C)cn2ncnc12 [Example 3]
[B] Cc1c(C2CCCN(CC(N)=O)CC2)sc2[nH]c(-c3cc(C)c4ncnn4c3)c(C(C)C)c12 (single isomer, unassigned) [Example 263]
**Q:** Which value of pEC50 is smaller, the one for A or the one for B ? Reply briefly: the label of your chosen item.
**A:** B
(B: 8.93, A: 9.57)

The origin of these recorded values is patent US11661431B2.
